Source of measurements: patent US20210332145A1

# koff per record follows
- target_under_test: T1, human BCMA with a His tag (ACROBiosystems, Catalog No.: BCA-H522y) (human)
- T1 construct: Bought His-tagged recombinant protein; also called huBCMA-His; Recombinant human BCMA
- T1 chain: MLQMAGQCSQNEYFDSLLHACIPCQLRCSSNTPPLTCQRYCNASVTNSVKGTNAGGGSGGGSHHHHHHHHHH
- assay_overview: SPR, Biacore T200
- Experimental: The binding affinity of select anti-BCMA was measured on a surface plasmon resonance (SPR) instrument, Biacore T200™, against human BCMA by a method known in the art. In experiments performed essentially as described above, a subset of anti-human BCMA antibodies of the present disclosure bind human BCMA with a His tag (ACROBiosystems, Beijing, China, Catalog No.: BCA-H522y, SEQ ID NO:2) with affinity shown in Table 6.
measured_endpoint: koff (s⁻¹)

binder="SCT-Aa11(h/h) (antibody, V domains shown, Full IgG format, chimeric: human IgG1 heavy chain constant region, human kappa light chain constant region) VH: QVQLQQSDAELVKPGASVKISCKVSGYTFTDHTIHWMKQRPEQGLEWIGYIFPRDGTTKFNEMFKGKATLTADKSSSTAYMELNSLTSEDSAVYFCARWDYEGFDYWGQGTTLTVSS VL: DIVMTQSPATLSVTPGDRVSLSCRASQSISDYLHWYQQKSHESPRLLIKYASQFISGIPSRFRGSGSGSDFTLSINSVEPEDVGVYYCQNGHSFPPTFGSGTKLEIK" measured_endpoint=koff recorded_number=0.113
binder="SCT-Aa18(h/h) (antibody, V domains shown, Full IgG format, chimeric: human IgG1 heavy chain constant region, human kappa light chain constant region) VH: EVQLQQSGPELVKPGASVKISCKASGYTFISYVMHWVKQKPGQGLEWIGYIIPYNDGTKYNEKFKGKATLTSDKSSSTAYMELSSLTSEDSAVYYCAKWGNWDEGTWFPYWGQGTLVTVSA VL: DVLMTQTPLSLPVSLGDQASFSCRSSQSIVHSDGNTYLEWYLQKPGQSPKLLIYKISNRFSGVPDRFSGSGSGTDFTLKISRVEAEDLGVYYCFQGSHVPWTFGGGTKLEIK" measured_endpoint=koff recorded_number=0.0506
binder="SCT-Aa05(m/m) (antibody, V domains shown, Full IgG format: mouse IgG1 heavy chain constant region, mouse kappa light chain constant region) VH: EVKLLQSGGGLVQPGGSLKLSCAASGIDFSRYWMSWVRRAPGKGLEWIGEINPDSSTINYAPSLKDKFIISRDNAKNTLYLQMSKVRSEDTGLYYCASLYYDYEREYGMDYWGQGTSVTVSS VL: DIVMTQSQKFMSTSVGDRVSVTCKASQNVGTNVAWYQQKPGQSPKALIYSASYRFSGVPDRFTGSGSGTDFTLTISNVQSEDLAEYFCQQYNSYPYTFGGGTKLEIK" measured_endpoint=koff recorded_number=0.00034
